Measured values drawn from patent US10392368B2 for this set.

assayed target: JAK2 (Homo sapiens)
Construct: GST; purchased Life Technologies
Sequence (O60674 whole entry): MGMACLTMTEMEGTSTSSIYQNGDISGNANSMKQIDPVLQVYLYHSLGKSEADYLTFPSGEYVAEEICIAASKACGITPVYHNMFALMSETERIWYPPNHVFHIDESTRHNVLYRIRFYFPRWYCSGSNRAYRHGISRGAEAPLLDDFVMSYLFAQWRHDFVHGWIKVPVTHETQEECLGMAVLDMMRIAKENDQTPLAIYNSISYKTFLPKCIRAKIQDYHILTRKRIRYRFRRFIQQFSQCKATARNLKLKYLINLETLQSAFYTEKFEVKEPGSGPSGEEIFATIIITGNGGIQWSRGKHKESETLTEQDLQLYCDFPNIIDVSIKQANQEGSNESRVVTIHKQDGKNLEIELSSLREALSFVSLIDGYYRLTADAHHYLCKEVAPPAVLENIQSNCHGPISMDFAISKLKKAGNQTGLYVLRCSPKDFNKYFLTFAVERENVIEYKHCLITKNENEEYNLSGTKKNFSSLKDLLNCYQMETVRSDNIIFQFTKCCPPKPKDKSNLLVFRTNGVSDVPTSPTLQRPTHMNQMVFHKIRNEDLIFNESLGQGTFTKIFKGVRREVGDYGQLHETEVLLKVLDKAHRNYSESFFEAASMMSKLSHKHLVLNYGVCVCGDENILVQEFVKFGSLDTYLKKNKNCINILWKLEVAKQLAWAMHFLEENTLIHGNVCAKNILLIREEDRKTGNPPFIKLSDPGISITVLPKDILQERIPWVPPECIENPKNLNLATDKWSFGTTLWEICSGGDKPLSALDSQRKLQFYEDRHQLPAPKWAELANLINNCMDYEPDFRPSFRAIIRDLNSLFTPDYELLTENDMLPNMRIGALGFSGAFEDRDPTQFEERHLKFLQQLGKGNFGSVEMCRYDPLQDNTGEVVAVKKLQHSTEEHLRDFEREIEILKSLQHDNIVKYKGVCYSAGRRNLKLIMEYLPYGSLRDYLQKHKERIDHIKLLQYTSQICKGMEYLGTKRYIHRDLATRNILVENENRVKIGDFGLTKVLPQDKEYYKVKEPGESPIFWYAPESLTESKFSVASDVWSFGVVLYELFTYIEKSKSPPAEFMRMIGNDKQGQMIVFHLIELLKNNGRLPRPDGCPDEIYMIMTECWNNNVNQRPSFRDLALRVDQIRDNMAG
procedure details: Biochemical JAK2 kinase assay (LanthaScreen)
experimental context: read-out: JAK 2 (pKi) (converted)
# Ki listing for each entry below
experimental endpoint: Ki

# compound, experimental endpoint, recorded result
rows = [
    ("C=CC(=O)N1CC[C@H](Oc2cc(-c3ccc(O)cc3)cc3[nH]nc(OC)c23)C1 [Compound 1-44]", "Ki", "> 0.1 µM"),
    ("CN(C)C/C=C/C(=O)N1CC(COc2cc(-c3ccc(O)cc3)cc3[nH]nc(C(F)(F)F)c23)C1 [Compound 18-12]", "Ki", "0.01 to 0.1 µM"),
    ("CN(C)C/C=C/C(=O)N1CCSC[C@@H]1C(=O)Nc1cc(-c2ccc(O)cc2)cc2[nH]ncc12 [Compound 12-65]", "Ki", "> 0.1 µM"),
    ("CCC1(COc2cc(-c3ccc(O)c(Cl)c3)cc3[nH]ncc23)CN(C(=O)/C=C/CN(C)C)C1 [Compound 3-15]", "Ki", "> 0.1 µM"),
    ("C=CC(=O)N1CCS[C@@H](C(=O)Nc2cc(-c3ccc(O)cc3)cc3[nH]ncc23)C1 [Compound 12-44]", "Ki", "0.01 to 0.1 µM"),
    ("CN(C/C=C/C(=O)N1CC(COc2cc(-c3ccc(O)cc3)cc3[nH]ncc23)C1)C(C)(C)C [Compound 3-116]", "Ki", "0.01 to 0.1 µM"),
    ("C=CC(=O)N1CC(CC)(COc2cc(-c3ccc(O)cc3)nc3[nH]ncc23)C1 [Compound 22]", "Ki", "> 0.1 µM"),
    ("CC(C)N(C)C/C=C/C(=O)N1CC(COc2cc(-c3ccc(O)cc3)cc3[nH]ncc23)C1 [Compound 3-113]", "Ki", "0.01 to 0.1 µM"),
    ("CN1CCC[C@@H]1/C=C/C(=O)N1CC(COc2cc(-c3ccc(O)cc3)cc3[nH]ncc23)C1 [Compound 3-85]", "Ki", "0.01 to 0.1 µM"),
    ("C=CC(=O)N1CC(OCc2cc(-c3ccc(O)cc3)cc3[nH]ncc23)C1 [Compound 12-39]", "Ki", "> 0.1 µM"),
    ("CN(C)C/C=C/C(=O)N1CC(C(C)(C)Oc2cc(-c3ccc(O)c(F)c3)cc3[nH]ncc23)C1 [Compound 3-27]", "Ki", "> 0.1 µM"),
    ("C=CC(=O)N1CCC(Nc2cc(-c3ccc(O)cc3)cc3[nH]ncc23)CC1 [Compound 7-4]", "Ki", "0.001 to 0.01 µM"),
    ("Cc1n[nH]c2cc(-c3ccc(O)c(Cl)c3)cc(OCC3CN(C(=O)/C=C/CN(C)C)C3)c12 [Compound 18-1]", "Ki", "0.01 to 0.1 µM"),
    ("C=CC(=O)N1CC[C@H](Nc2cc(-c3ccc(O)cc3)cc3[nH]ncc23)[C@H](C)C1 [Compound 12-16]", "Ki", "0.001 to 0.01 µM"),
    ("C=CC(=O)N1CC(CC)(COc2nc(-c3ccc(O)c(F)c3)nc3[nH]ncc23)C1 [Compound 3-67]", "Ki", "> 0.1 µM"),
    ("C=CC(=O)N1CC(C#N)(COc2nc(-c3ccc(O)c(F)c3)nc3[nH]ncc23)C1 [Compound 3-110]", "Ki", "> 0.1 µM"),
    ("CSC1CCN(C/C=C/C(=O)N2CC(COc3cc(-c4ccc(O)cc4)cc4[nH]ncc34)C2)C1 (stereo not shown) [Compound 3-125]", "Ki", "> 0.1 µM"),
    ("C=CC(=O)N1CC[C@H](Oc2cc(-c3ccc(O)c(F)c3)nc3[nH]nc(C)c23)C1 [Compound 1-33]", "Ki", "> 0.1 µM"),
    ("CN(C)C/C=C\\C(=O)N1CC(COc2cc(-c3ccc(O)c(Cl)c3)cc3[nH]ncc23)C1 [Compound 3-122]", "Ki", "0.01 to 0.1 µM"),
    ("C=CC(=O)N1CC(S(=O)(=O)c2cc(-c3ccc(O)cc3)cc3[nH]ncc23)C1 [Compound 12-50]", "Ki", "> 0.1 µM"),
    ("C=CC(=O)N1CC[C@H](Oc2cc(-c3ccc(O)cc3)cc3[nH]nc(C)c23)C1 [Compound 1-20]", "Ki", "0.01 to 0.1 µM"),
    ("C=CC(=O)N1CC(COc2cc(-c3ccc(O)c(Cl)c3)cc3[nH]ncc23)C1 [Compound 3-3]", "Ki", "> 0.1 µM"),
    ("CN(C)C/C=C/C(=O)N1CC(OCc2cc(-c3ccc(O)cc3)cc3[nH]ncc23)C1 [Compound 12-38]", "Ki", "> 0.1 µM"),
    ("C=CC(=O)N1CC[C@H](Oc2nc(-c3ccc(O)cc3)cc3[nH]nc(C)c23)C1 [Compound 1-34]", "Ki", "0.01 to 0.1 µM"),
    ("CN(C)C/C=C/C(=O)N1CC(F)(C2(Oc3cc(-c4ccc(O)cc4)cc4[nH]ncc34)CC2)C1 [Compound 12-36]", "Ki", "> 0.1 µM"),
    ("C=CC(=O)N1C[C@@H](Oc2cc(-c3ccc(O)cc3)nc3[nH]ncc23)C[C@H]1C [Compound 1-26]", "Ki", "> 0.1 µM"),
    ("CN(C)C/C=C/C(=O)N1CC(F)(C(=O)Nc2cc(-c3ccc(O)cc3)cc3[nH]ncc23)C1 [Compound 12-67]", "Ki", "> 0.1 µM"),
    ("C=CC(=O)N1CCC(COc2cc(-c3ccc(O)cc3)cc3[nH]ncc23)CC1 [Compound 12-27]", "Ki", "0.01 to 0.1 µM"),
    ("C=CC(=O)N1CC(COc2cc(-c3ccc(O)c(F)c3)cc3[nH]ncc23)C1 [Compound 3-4]", "Ki", "0.01 to 0.1 µM"),
    ("C=CC(=O)N1CC(F)(COc2nc(-c3ccc(O)c(Cl)c3)nc3[nH]ncc23)C1 [Compound 3-92]", "Ki", "> 0.1 µM"),
    ("C=CC(=O)N1CC[C@@H](Oc2cc(-c3ccc(O)cc3)cc3[nH]ncc23)C[C@@H]1C [Compound 12-30]", "Ki", "0.001 to 0.01 µM"),
]

###

procedure details: Colon and plasma mouse pharmacokinetics
Format: in vivo
experimental context: mouse, colon tissue / plasma; male Balb/c mice, 10 mg/kg PO; 0.5, 2 and 6 hours; read-out: colon to plasma ratio (colon AUC to plasma AUC)
experimental endpoint: Kp

# compound, recorded result
measured = [
    ("CN(C)C/C=C/C(=O)N1CC(C#N)(COc2cc(-c3ccc(O)c(F)c3)cc3[nH]ncc23)C1 [Compound 8]", "> 1250"),
    ("C=CC(=O)N1CC[C@H](Oc2cc(-c3ccc(O)c(Cl)c3)cc3[nH]ncc23)C1 [Compound 2]", "> 1250"),
    ("C=CC(=O)N1CC(CC)(COc2cc(-c3ccc(O)cc3)nc3[nH]ncc23)C1 [Compound 22]", "> 1250"),
    ("CN(C)C/C=C/C(=O)N1CC(C(C)(C)Oc2cc(-c3ccc(O)c(Cl)c3)cc3[nH]ncc23)C1 [Compound 3]", "> 1250"),
    ("C=CC(=O)N1CCO[C@@H](C(=O)Nc2cc(-c3ccc(O)cc3)cc3[nH]ncc23)C1 [Compound 6]", "> 1250"),
]

###

assayed target: JAK3 (Homo sapiens, UniProt P52333)
Sequence (P52333 whole entry): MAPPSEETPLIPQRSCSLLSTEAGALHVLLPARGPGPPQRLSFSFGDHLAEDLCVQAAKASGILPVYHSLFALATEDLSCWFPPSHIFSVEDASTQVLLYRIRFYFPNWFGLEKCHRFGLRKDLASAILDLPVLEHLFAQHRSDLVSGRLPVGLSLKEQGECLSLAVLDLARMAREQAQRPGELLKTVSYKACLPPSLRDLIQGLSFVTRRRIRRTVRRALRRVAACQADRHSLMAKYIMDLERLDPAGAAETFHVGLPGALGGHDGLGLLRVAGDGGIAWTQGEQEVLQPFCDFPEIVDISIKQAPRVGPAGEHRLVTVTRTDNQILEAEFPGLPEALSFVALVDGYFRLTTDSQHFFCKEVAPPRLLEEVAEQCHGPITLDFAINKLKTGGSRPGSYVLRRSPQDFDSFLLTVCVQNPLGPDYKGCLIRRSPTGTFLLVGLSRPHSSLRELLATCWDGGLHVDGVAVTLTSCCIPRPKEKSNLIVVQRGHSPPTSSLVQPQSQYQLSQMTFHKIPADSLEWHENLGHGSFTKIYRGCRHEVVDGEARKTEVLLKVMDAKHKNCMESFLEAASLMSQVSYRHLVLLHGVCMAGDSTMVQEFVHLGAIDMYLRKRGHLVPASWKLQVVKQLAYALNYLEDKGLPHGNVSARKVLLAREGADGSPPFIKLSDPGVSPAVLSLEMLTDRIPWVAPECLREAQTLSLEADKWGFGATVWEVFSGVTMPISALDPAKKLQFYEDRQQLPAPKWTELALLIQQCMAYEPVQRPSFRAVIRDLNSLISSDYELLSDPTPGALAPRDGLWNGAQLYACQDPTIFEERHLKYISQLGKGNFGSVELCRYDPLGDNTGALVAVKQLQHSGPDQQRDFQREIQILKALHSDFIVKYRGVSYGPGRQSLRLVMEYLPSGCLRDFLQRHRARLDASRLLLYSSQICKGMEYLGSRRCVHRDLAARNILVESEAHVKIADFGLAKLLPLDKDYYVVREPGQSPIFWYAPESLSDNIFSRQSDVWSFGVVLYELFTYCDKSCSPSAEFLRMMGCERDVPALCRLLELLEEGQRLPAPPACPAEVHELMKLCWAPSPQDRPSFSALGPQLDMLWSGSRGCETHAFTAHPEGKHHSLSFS
procedure details: Biochemical JAK3 kinase assay (LanthaScreen)
Parameters: GST; purchased Life Technologies
experimental context: read-out: JAK 3 (pKi) (converted)
experimental endpoint: Ki

# compound, recorded result
rows = [
    ("C=CC(=O)N1CC(COc2cc(-c3ccc(O)c(OC)c3)cc3[nH]ncc23)C1", "< 100 pM"),
    ("C=CC(=O)N1CC[C@H](Oc2cc(-c3ccc(O)cc3)cc3[nH]nc(C(F)(F)F)c23)C1", "< 100 pM"),
    ("C=CC(=O)N1CC(COc2cc(-c3ccc(O)cc3)nc3[nH]ncc23)C1", "< 100 pM"),
    ("CN(C)C/C=C/C(=O)N1CC(F)(COc2cc(-c3ccc(O)c(F)c3)nc3[nH]ncc23)C1", "100 to 1000 pM"),
    ("C=CC(=O)N1CCC(Oc2cc(-c3ccc(O)c(F)c3)cc3[nH]ncc23)CC1", "< 100 pM"),
    ("C=CC(=O)N1CCC(N(C)c2cc(-c3ccc(O)c(F)c3)cc3[nH]ncc23)CC1", "< 100 pM"),
    ("C=CC(=O)N1CC(COc2nc(-c3ccc(O)cc3)nc3[nH]ncc23)C1", "< 100 pM"),
    ("C=CC(=O)N1CC(C#N)(COc2nc(-c3ccc(O)cc3)cc3[nH]ncc23)C1", "< 100 pM"),
    ("C=CC(=O)N1CC[C@H](Nc2cc(-c3ccc(O)cc3)cc3[nH]ncc23)[C@H](C)C1", "100 to 1000 pM"),
    ("C=CC(=O)N1CC(COc2cc(-c3ccc(O)cc3)cc3[nH]nc(C(F)(F)F)c23)C1", "< 100 pM"),
    ("C=CC(=O)N1CCC(C)(Oc2cc(-c3ccc(O)c(F)c3)cc3[nH]ncc23)CC1", "100 to 1000 pM"),
    ("C=CC(=O)N1CC(C)(COc2nc(-c3ccc(O)c(F)c3)nc3[nH]ncc23)C1", "< 100 pM"),
    ("CN(C)C/C=C/C(=O)N1CC(C)(COc2cc(-c3ccc(O)c(Cl)c3)cc3[nH]ncc23)C1", "100 to 1000 pM"),
    ("C=CC(=O)N1CC[C@H](Oc2cc(-c3ccc(O)c(Cl)c3)cc3[nH]ncc23)C1", "< 100 pM"),
    ("CN1CCC[C@@H]1/C=C/C(=O)N1CC[C@H](Oc2cc(-c3ccc(O)cc3)cc3[nH]ncc23)C1", "100 to 1000 pM"),
    ("C=CC(=O)N1CC(CC)(COc2nc(-c3ccc(O)c(F)c3)nc3[nH]ncc23)C1", "100 to 1000 pM"),
    ("C=CC(=O)N1CC(F)(COc2cc(-c3ccc(O)cc3)nc3[nH]ncc23)C1", "< 100 pM"),
    ("C=CC(=O)N1CCSC(C(=O)Nc2cc(-c3ccc(O)cc3)cc3[nH]ncc23)C1 (stereo not drawn) [Compound 12-43]", "< 100 pM"),
    ("C=CC(=O)N1CC[C@H](Oc2nc(-c3ccc(O)c(F)c3)cc3[nH]ncc23)C1", "< 100 pM"),
    ("C=CC(=O)N1CC[C@@H](Nc2cc(-c3ccc(O)cc3)cc3[nH]ncc23)[C@H](C)C1", "< 100 pM"),
    ("C=CC(=O)N1CC[C@@H](Oc2cc(-c3ccc(O)cc3)cc3[nH]ncc23)C[C@@H]1C", "< 100 pM"),
    ("CN(C/C=C/C(=O)N1CC(COc2cc(-c3ccc(O)cc3)cc3[nH]ncc23)C1)C(C)(C)C", "100 to 1000 pM"),
    ("C=CC(=O)N1CC(C)(COc2cc(-c3ccc(O)c(F)c3)nc3[nH]ncc23)C1", "< 100 pM"),
    ("C=CC(=O)N1CC(COc2cc(-c3ccc(O)c(Cl)c3)nc3[nH]ncc23)C1", "< 100 pM"),
    ("CN(C)C/C=C/C(=O)N1CC(COc2cc(-c3c(F)cc(O)cc3F)cc3[nH]ncc23)C1", "< 100 pM"),
    ("C=CC(=O)N1CC(F)(COc2nc(-c3ccc(O)c(F)c3)cc3[nH]ncc23)C1", "100 to 1000 pM"),
    ("C=CC(=O)N1CC(C(C)Oc2nc(-c3ccc(O)cc3)nc3[nH]ncc23)C1 (stereo not drawn)", "< 100 pM"),
    ("C=CC(=O)N1CCC(F)(C(=O)Nc2cc(-c3ccc(O)cc3)cc3[nH]ncc23)CC1", "< 100 pM"),
    ("C=CC(=O)N1CC(S(=O)(=O)c2cc(-c3ccc(O)cc3)cc3[nH]ncc23)C1", "< 100 pM"),
    ("C=CC(=O)N1CC[C@H](Oc2cc(-c3ccc(O)c(F)c3F)cc3[nH]ncc23)C1", "100 to 1000 pM"),
    ("C=CC(=O)N1CC[C@H](Oc2cc(-c3cc(F)c(O)cc3F)cc3[nH]nc(C)c23)C1", "< 100 pM"),
    ("CN(C)C/C=C/C(=O)N1CCC(C)(Oc2cc(-c3ccc(O)c(F)c3)cc3[nH]ncc23)CC1", "100 to 1000 pM"),
    ("C=CC(=O)N1CC(CC)(COc2cc(-c3ccc(O)cc3)nc3[nH]ncc23)C1", "< 100 pM"),
]
